Taken from the supplement of paper PMC11061612.

- Tested on: KYSE-270 (Esophageal Squamous Cell Carcinoma);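 further: after 72 h of two-drug dosing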
- assay-name: Bliss excess, mean over the matrix (fraction); higher = more synergy
Recorded Bliss excess by entry
endpoint: Bliss excess

molecule="CC(=O)c1c(C)c2cnc(Nc3ccc(N4CCNCC4)cn3)nc2n(C2CCCC2)c1=O [Palbociclib] + Cn1cnc2c(F)c(Nc3ccc(Br)cc3Cl)c(C(=O)NOCCO)cc21 [Selumetinib] (first compound max 10 µM, 7x7, partner max 10 µM)" endpoint="Bliss excess" numeric_value=-0.0512
molecule="CCN(CCO)CCCOc1ccc2c(Nc3cc(CC(=O)Nc4cccc(F)c4)[nH]n3)ncnc2c1 [AZD2811] + C=CCn1c(=O)c2cnc(Nc3ccc(N4CCN(C)CC4)cc3)nc2n1-c1cccc(C(C)(C)O)n1 [AZD1775] (first compound max 1 µM, partner max 1 µM)" endpoint="Bliss excess" numeric_value=-0.0281
molecule="Cc1c2c(nn1C)CSCc1cc(n(C)n1)CSc1cc(c3ccccc3c1)OCCCc1c(C(=O)O)n(C)c3c-2c(Cl)ccc13 [AZD5991] + CC(=O)O[C@H]1C(=O)[C@@]2(C)[C@H]([C@H](OC(=O)c3ccccc3)[C@]3(O)C[C@H](OC(=O)[C@H](O)[C@@H](NC(=O)c4ccccc4)c4ccccc4)C(C)=C1C3(C)C)[C@]1(OC(C)=O)CO[C@@H]1C[C@@H]2O [Paclitaxel] (first compound max 1 µM, 7x7, partner max 3 µM)" endpoint="Bliss excess" numeric_value=-0.0116

----------
- Tested on: VMRC-RCZ (Kidney Carcinoma)
- assay-name: combination Emax (second highest fraction inhibited in the dose matrix, 72 h); higher = more inhibition; extreme values may be limits of the assay
endpoint: combination Emax

molecule="N#Cc1cnc(Nc2cc(NC[C@H]3CNCCO3)c(C(F)(F)F)cn2)cn1 [SRA737] + O=c1[nH]cc(F)c(=O)[nH]1 [5-Fluorouracil] (first compound max 10 µM, 7x7, partner max 20 µM)" result=0.354
molecule="Cn1cnc2c(F)c(Nc3ccc(Br)cc3Cl)c(C(=O)NOCCO)cc21 [Selumetinib] + CC(C)n1c(=O)n(C)c2cnc3cc(F)c(-c4ccc(OCCCN5CCCCC5)nc4)cc3c21 [AZD1390] (first compound max 10 µM, 7x7, partner max 0.3 µM)" result=0.101
molecule="C=CCn1c(=O)c2cnc(Nc3ccc(N4CCN(C)CC4)cc3)nc2n1-c1cccc(C(C)(C)O)n1 [AZD1775] + CCc1c2c(nc3ccc(O)cc13)-c1cc3c(c(=O)n1C2)COC(=O)[C@]3(O)CC [SN-38] (first compound max 1 µM, partner max 0.3 µM)" result=0.462
molecule="CC(=O)Nc1cccc(-n2c(=O)n(C3CC3)c(=O)c3c(Nc4ccc(I)cc4F)n(C)c(=O)c(C)c32)c1 [Trametinib] + Cc1nc(-c2cn3c(n2)-c2ccc(-c4cnn(C(C)(C)C(N)=O)c4)cc2OCC3)n(C(C)C)n1 [Taselisib] (first compound max 1 µM, 7x7, partner max 10 µM)" result=0.308
molecule="COc1cccc(OCCCN)c1-c1cc(Nc2cnc(C#N)cn2)n[nH]1 [Prexasertib] + CCc1c2c(nc3ccc(O)cc13)-c1cc3c(c(=O)n1C2)COC(=O)[C@]3(O)CC [SN-38] (first compound max 1 µM, 7x7, partner max 0.3 µM)" result=0.625
molecule="CN(CCO)CC[C@H](CSc1ccccc1)Nc1ccc(S(=O)(=O)NC(=O)c2ccc(N3CCC([C@@H](O)c4ccccc4-c4ccc(Cl)cc4)CC3)cc2)cc1S(=O)(=O)C(F)(F)F [AZD4320] + Nc1ccn([C@@H]2O[C@H](CO)[C@@H](O)C2(F)F)c(=O)n1 [Gemcitabine] (first compound max 1 µM, 7x7, partner max 0.3 µM)" result=0.589
molecule="Cc1cc2ncnn2cc1Nc1ncc2c(n1)n(C1CCOCC1)c(=O)n2C [AZD7648] + C=CCn1c(=O)c2cnc(Nc3ccc(N4CCN(C)CC4)cc3)nc2n1-c1cccc(C(C)(C)O)n1 [AZD1775] (first compound max 10 µM, partner max 1 µM)" result=0.393
